Assign IC50 to each entry below.
# System: MCF7 cells (breast carcinoma)
# MEASUREMENT_PROTOCOL: MTT cytotoxicity assay, MCF7
# CONDITIONS_USED: Homo sapiens, MCF7, 24 h, read-out: Cytotoxicity IC50 MCF7
Remember to put the unit after the number in your answer.

query: Query IC50 on MCF7 cells (breast carcinoma) for COc1ccc(-c2nc(NS(=O)(=O)c3ccc(C)cc3)nc(OC)c2C#N)cc1 [Compound 5b]
result: 2 nM

query: Same again, this time with COc1ccc(-c2nc(NS(=O)(=O)c3ccc(C(F)(F)F)cc3)nc(OC)c2C#N)cc1 [Compound 5d]
result: 1 nM

query: And COc1cccc2c1C(=O)c1c(O)c3c(c(O)c1C2=O)C[C@@](O)(C(=O)CO)C[C@@H]3O[C@H]1C[C@H](N)[C@H](O)[C@H](C)O1 [Doxorubicin, doxorubicin, reference compound] ?
result: 9 nM

query: Do the same for COc1ccc(-c2nc(NCc3nc4ccccc4o3)nc(OC)c2C#N)cc1 [Compound 3b] please
result: 3 nM

* * *

# SYSTEM_TESTED: human COX-2 (Homo sapiens, UniProt P35354)
# Construct: purchased Biovision, Zurich, Switzerland
# Sequence (P35354 18-604): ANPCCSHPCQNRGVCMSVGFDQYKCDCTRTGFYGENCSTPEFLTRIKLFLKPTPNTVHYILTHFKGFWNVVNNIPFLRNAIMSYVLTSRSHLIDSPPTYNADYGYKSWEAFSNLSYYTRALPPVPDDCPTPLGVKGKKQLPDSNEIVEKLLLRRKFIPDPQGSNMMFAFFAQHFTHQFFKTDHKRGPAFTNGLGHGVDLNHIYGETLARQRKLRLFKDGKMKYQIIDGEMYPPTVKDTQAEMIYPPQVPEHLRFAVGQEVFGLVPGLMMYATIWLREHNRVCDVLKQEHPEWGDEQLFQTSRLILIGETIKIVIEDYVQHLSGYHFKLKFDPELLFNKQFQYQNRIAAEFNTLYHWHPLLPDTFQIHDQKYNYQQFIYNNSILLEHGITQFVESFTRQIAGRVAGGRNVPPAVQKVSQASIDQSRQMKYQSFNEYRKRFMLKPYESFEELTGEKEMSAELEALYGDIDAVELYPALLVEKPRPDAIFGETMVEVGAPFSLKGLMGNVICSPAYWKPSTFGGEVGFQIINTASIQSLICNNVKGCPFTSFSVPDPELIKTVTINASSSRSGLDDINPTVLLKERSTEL
# MEASUREMENT_PROTOCOL: COX-2 inhibition assay (fluorometric inhibitor screening kit)
# Type: biochemical
# CONDITIONS_USED: 10^−9 M; mean of three experiments ± SD; read-out: COX-2 Inhibition (%)
Task for the reader: assign each of the following molecules its reported inhibition at 0.001 µM.
Your answer is read as %, so omit the unit and give the number.

query: If you can, please state the reported inhibition at 0.001 µM value of COc1ccc(-c2nc(NS(=O)(=O)c3ccc(C)cc3)nc(OC)c2C#N)cc1 .
result: 59.5

query: Lookup COc1ccc(-c2nc(NCc3nc4ccccc4o3)nc(OC)c2C#N)cc1
result: 61.3

query: Try this molecule too: COc1ccc(-c2nc(NCc3nc4ccccc4[nH]3)nc(OC)c2C#N)cc1
result: 22.3

query: What about this molecule? COc1ccc(-c2nc(NS(=O)(=O)c3ccc(C(C)(C)C)cc3)nc(OC)c2C#N)cc1
result: 64.3

query: Do the same for COc1ccc(-c2nc(NS(=O)(=O)c3ccc(C(F)(F)F)cc3)nc(OC)c2C#N)cc1 please
result: 60.7

query: # iterate: COc1ccc(-c2nc(NCc3cc4ccccc4s3)nc(OC)c2C#N)cc1
result: 60.4

query: Please do the same for COc1ccc(-c2nc(NCc3nc4ccccc4s3)nc(OC)c2C#N)cc1 as well.
result: 21

query: Also COc1ccc(-c2nc(NS(=O)(=O)c3ccccc3)nc(OC)c2C#N)cc1 ?
result: 61.3
